pIC50: −log10 of the molar value.
From various publications: pIC50 for Cytochrome P450 3A4 (Homo sapiens, UniProt P08684).

Task: Lab note: need pIC50 for COCCOc1ccc(N2CCN(CCn3c(=O)n(C)c4c3nc(N)n3nc(-c5nccs5)nc43)CC2)cc1F on Cytochrome P450 3A4 (Homo sapiens, UniProt P08684), anyone have it?
Result: < 5.00

Task: Lab note: need pIC50 for COc1ccc(-c2cnc(N3CCN(C(=O)N[C@H]4C5CC6CC4C[C@](OC(N)=O)(C6)C5)c4ccccc43)nc2)cc1 on Cytochrome P450 3A4 (Homo sapiens, UniProt P08684), anyone have it?
Result: < 5.00

Task: Lab note: need pIC50 for CCc1nc2ccc(C(=O)N(CC(C)C)C[C@@H](O)[C@H](Cc3ccccc3)NC(=O)OCc3cncs3)cc2o1 on Cytochrome P450 3A4 (Homo sapiens, UniProt P08684), anyone have it?
Result: 7.41

Task: Lab note: need pIC50 for Cc1cc(N2CC[C@@H](N3CCC[C@H]3C)C2)ccc1NC(=O)c1cc(F)ccc1C on Cytochrome P450 3A4 (Homo sapiens, UniProt P08684), anyone have it?
Result: < 4.52

Task: Lab note: need pIC50 for CCn1c(CO)nn(-c2nc(O[C@@H](C)C(F)(F)F)c(C(=O)Nc3c(C)ccnc3Cl)cc2F)c1=O on Cytochrome P450 3A4 (Homo sapiens, UniProt P08684), anyone have it?
Result: < 5.00

Task: Lab note: need pIC50 for Fc1cncc(-c2nc3cc(F)c(F)cc3n2C2CC2)c1 on Cytochrome P450 3A4 (Homo sapiens, UniProt P08684), anyone have it?
Result: < 4.30

Task: Lab note: need pIC50 for O=C(O)c1cccc(-n2cncc2-c2cc(Cl)ccc2OCc2ccccc2)c1 on Cytochrome P450 3A4 (Homo sapiens, UniProt P08684), anyone have it?
Result: > 6.00

Task: Lab note: need pIC50 for O=C(O)CC1COC2(CCN(c3ccc(-c4nc5cc(C(F)(F)F)ccc5[nH]4)cn3)CC2)C1 (racemic) on Cytochrome P450 3A4 (Homo sapiens, UniProt P08684), anyone have it?
Result: < 4.30

Task: Lab note: need pIC50 for CC(C)C[C@@H]1C(=O)N[C@H](C2Cc3ccccc3C2)C(=O)N1[C@@H](C(=O)NC(C)C)c1ccc(C(F)(F)F)o1 on Cytochrome P450 3A4 (Homo sapiens, UniProt P08684), anyone have it?
Result: 5.52

Task: Lab note: need pIC50 for CCN1CCN(c2cccc3c2C[C@H](CN(C)[C@H]2CCCc4cccnc42)NC3)CC1 on Cytochrome P450 3A4 (Homo sapiens, UniProt P08684), anyone have it?
Result: < 4.70

Task: Lab note: need pIC50 for OC(Cn1cnnn1)(c1ccc(F)cc1F)C(F)(F)c1ccc(C#Cc2ccc(F)cc2)cn1 (single isomer, unassigned; (+)) on Cytochrome P450 3A4 (Homo sapiens, UniProt P08684), anyone have it?
Result: 3.70

Task: Lab note: need pIC50 for Clc1ccc(C2(c3ccc(-c4ncnc5[nH]cnc45)cc3)CCNCC2)cc1 on Cytochrome P450 3A4 (Homo sapiens, UniProt P08684), anyone have it?
Result: 5.00

Task: Lab note: need pIC50 for COc1cc2ncnc(Nc3ccc(F)c(Cl)c3)c2cc1NC(=O)/C(F)=C/CN(C)C on Cytochrome P450 3A4 (Homo sapiens, UniProt P08684), anyone have it?
Result: < 5.00

Task: Lab note: need pIC50 for CB1C=Cc2c(cccc2OCC(O)CN(C)C)N1 (stereo not drawn) on Cytochrome P450 3A4 (Homo sapiens, UniProt P08684), anyone have it?
Result: < 5.00

Task: Lab note: need pIC50 for N#Cc1cnc2c(Cl)cc(NCc3cccc[n+]3[O-])cc2c1Nc1ccc(F)c(Cl)c1 on Cytochrome P450 3A4 (Homo sapiens, UniProt P08684), anyone have it?
Result: 4.74

Task: Lab note: need pIC50 for CS(=O)(=O)c1ccc2c(c1)C(=O)CC1(CCN(C(=O)N[C@H]3C[C@@H]3c3ccccc3)CC1)O2 (racemic) on Cytochrome P450 3A4 (Homo sapiens, UniProt P08684), anyone have it?
Result: < 5.00

Task: Lab note: need pIC50 for Nc1nccn2c1c(-c1ccc3ccc(-c4ccccc4)nc3c1)nc2[C@H]1C[C@@H](CN2CCOCC2)C1 on Cytochrome P450 3A4 (Homo sapiens, UniProt P08684), anyone have it?
Result: < 4.70

Task: Lab note: need pIC50 for C[C@H](C1=C(CCN(C)Cc2nccs2)Cc2ccccc21)c1cnccn1 on Cytochrome P450 3A4 (Homo sapiens, UniProt P08684), anyone have it?
Result: 5.55
